Cited source for all entries: patent US20100267561A1

Tested on: velvetleaf (Abutilon theophrasti)
assay info: Test B pre-/postemergence plant response
Assay type: in vivo
run parameters: Postemergence, 31 g ai/ha; scale 0 to 100
Entries and their measured Plant response rating, Velvetleaf follow.
Response field accepts a number only; no unit should be typed.

Solved cases below.
Input: Request: Plant response rating, Velvetleaf, test system velvetleaf (Abutilon theophrasti), entry Cc1cc(-c2ccc(Cl)cc2)nn1-c1c(OC(=O)Oc2ccccc2)cnn(C)c1=O
Output: 0

Input: Field: Plant response rating, Velvetleaf (velvetleaf (Abutilon theophrasti)). Entry: CCCC(=O)Oc1cnn(C)c(=O)c1-n1nc(-c2ccc(Cl)cc2)cc1C
Output: 0

Input: Short answer please: Plant response rating, Velvetleaf, velvetleaf (Abutilon theophrasti), entry Cc1nn(C)c(=O)c(-n2nc(-c3ccc(Cl)cc3)cc2Cl)c1O
Output: 0

Others:
Input: Lookup: Plant response rating, Velvetleaf / velvetleaf (Abutilon theophrasti) / Cc1cc(-c2ccc(Cl)cc2)nn1-c1c(OC(=O)c2cccs2)cnn(C)c1=O
Output: 0

###

System: common (oilseed) sunflower (Helianthus annuus)
assay info: Test B pre-/postemergence plant response
Format: in vivo
run parameters: Preemergence, 62 g ai/ha; scale 0 to 100
Plant response rating, Sunflower overview
Quick one: just the number, no unit, thanks!

Here are 4 compounds together with their reported answers.
Input: I am curious: what Plant response rating, Sunflower value has been reported for Cc1cc(-c2ccc(Cl)cc2)nn1-c1c(OS(=O)(=O)c2cccc3ccccc23)cnn(C)c1=O [Compound 47] ?
Output: 0

Input: Which Plant response rating, Sunflower value belongs to CCOC(=O)Oc1cnn(C)c(=O)c1-n1nc(-c2ccc(Cl)cc2)cc1C [Compound 53] ?
Output: 0

Input: Return reported Plant response rating, Sunflower; argument: CCc1cc(-c2ccc(Cl)cc2)nn1-c1c(O)cnn(C)c1=O [Compound 21]
Output: 0

Input: # Plant response rating, Sunflower lookup, item Cc1cc(-c2ccc(Cl)cc2)nn1-c1c(OC(=O)CC(C)C)cnn(C)c1=O [Compound 37]
Output: 30

More entries:
Input: Give its Plant response rating, Sunflower value. Item: Cc1cc(-c2ccc(C(F)(F)F)c(F)c2)nn1-c1c(O)c(C(F)(F)F)nn(C)c1=O [Compound 44]
Output: 0

###

Parameter: Corn plant response rating. Scope: all listed entries.
Test system: corn (Zea mays)
assay info: Test B pre-/postemergence plant response
Format: in vivo
run parameters: Preemergence; 8 g ai/ha; scale 0 to 100
Form rule: numeric answer, no unit written next to it.

Input: Any idea what Corn plant response rating was measured for Cc1cc(-c2ccc(Cl)cc2)nn1-c1c(OS(=O)(=O)c2ccccc2)cnn(C)c1=O ?
Output: 5

Input: Field request: Corn plant response rating | item: Cc1cc(-c2ccc(Cl)cc2)nn1-c1c(OS(=O)(=O)c2ccc(Cl)s2)cnn(C)c1=O
Output: 0

Input: Which Corn plant response rating reading was recorded for the molecule Cn1ncc(O)c(-n2nc(-c3ccc(Cl)cc3)cc2C2CC2)c1=O ?
Output: 0

Now consider the entry below.
Input: Data request, read-out Corn plant response rating, for Cc1cc(-c2ccc(Cl)cc2)nn1-c1c(OS(=O)(=O)C(C)C)cnn(C)c1=O
Output: 0

###

Reported Plant response rating, Foxtail, Giant values are given for each entry in this list.
Tested on: giant foxtail (Setaria faberi)
assay info: Test A pre-/postemergence plant response
Type: in vivo
run parameters: Postemergence, 125 g ai/ha; 0 to 100 scale, 0 no effect, 100 complete control
No unit in the answer, please; the number alone is enough.

Worked examples, 3 molecules total:
Input: Returns the measured Plant response rating, Foxtail, Giant for the input molecule. Input: Cc1nn(C)c(=O)c(-n2nc(-c3ccc(Cl)cc3)cc2Cl)c1O
Output: 90

Input: Which Plant response rating, Foxtail, Giant reading was recorded for the molecule Cc1ccc(-c2ccc(Cl)cc2)cc1-c1c(O)cnn(C)c1=O ?
Output: 60

Input: Quick one: Plant response rating, Foxtail, Giant for CCc1cc(-c2ccc(C(F)(F)F)cc2)nn1-c1c(O)c(C)nn(C)c1=O ?
Output: 100

New cases:
Input: Given CCCc1cc(-c2ccc(C(F)(F)F)cc2)nn1-c1c(O)cnn(C)c1=O , state its recorded Plant response rating, Foxtail, Giant.
Output: 100

Input: Name the reported Plant response rating, Foxtail, Giant value associated with the molecule CCc1c(C)c(-c2ccc(Br)cc2)nn1-c1c(O)cnn(C)c1=O
Output: 100

Input: Record request: Plant response rating, Foxtail, Giant value, item Cc1cc(-c2ccc(C(F)(F)F)c(F)c2)nn1-c1c(O)c(C(F)(F)F)nn(C)c1=O
Output: 100

Input: Quick check: Plant response rating, Foxtail, Giant of Cc1cc(-c2ccc(Cl)cc2)nn1-c1c(OC(=O)N(C)C)cnn(C)c1=O ?
Output: 80
